src = ChEMBL document CHEMBL4033751

- assayExplanation: Cytotoxicity in mouse B16 cells assessed as cell viability at 5 uM by MTT assay
- Assay type: cell-based
- reportedConditions: read-out: Activity

structureString: O=C(/C=C/c1ccc(O)c(O)c1)Nc1ccc(C(F)(F)F)cc1
viability at 5 µM: 56 to 58%
//
structureString: O=C(/C=C/c1ccc(O)c(O)c1)NCc1ccccc1C(F)(F)F
viability at 5 µM: 22 to 28%
//
structureString: O=C(/C=C/c1ccc(O)c(O)c1)NCc1ccc(C(F)(F)F)cc1
viability at 5 µM: 26%
//
structureString: O=C(/C=C/c1ccc(O)c(O)c1)Nc1cccc(C(F)(F)F)c1
viability at 5 µM: 60 to 82%
//
structureString: CC(C)c1ccc(NC(=O)/C=C/c2ccc(O)c(O)c2)cc1
viability at 5 µM: 15%
//
structureString: Cc1n[nH]c(NC(=O)/C=C/c2ccc(O)c(O)c2)c1-c1ccc(Br)cc1
viability at 5 µM: 68 to 93%
//
structureString: O=C(/C=C/c1ccc(O)c(O)c1)NCc1cccc(C(F)(F)F)c1
viability at 5 µM: 24%
//
structureString: O=C(/C=C/c1ccc(O)c(O)c1)Nc1cccc([N+](=O)[O-])c1
viability at 5 µM: 24 to 35%
//
structureString: O=C(/C=C/c1ccc(O)c(O)c1)NCc1ccc(Cl)cc1
viability at 5 µM: 23%
//
structureString: CCCCc1ccc(NC(=O)/C=C/c2ccc(O)c(O)c2)cc1
viability at 5 µM: 68 to 96%
//
structureString: O=C(/C=C/c1ccc(O)c(O)c1)Nc1ccc([N+](=O)[O-])cc1
viability at 5 µM: 30 to 35%

---

Listed next: entries and their corresponding viability at 10 µM.
- assayExplanation: Cytotoxicity in mouse B16 cells assessed as cell viability at 10 uM by MTT assay
- Type: cell-based
- reportedConditions: read-out: Activity
quantityKind: viability at 10 µM

structureString: O=C(/C=C/c1ccc(O)c(O)c1)Nc1ccc([N+](=O)[O-])cc1
quantityKind: viability at 10 µM
recordedValue: 51 to 62%
--
structureString: O=C(/C=C/c1ccc(O)c(O)c1)NCc1cccc(C(F)(F)F)c1
quantityKind: viability at 10 µM
recordedValue: 29 to 47%
--
structureString: CC(C)c1ccc(NC(=O)/C=C/c2ccc(O)c(O)c2)cc1
quantityKind: viability at 10 µM
recordedValue: 82%
--
structureString: O=C(/C=C/c1ccc(O)c(O)c1)NCc1ccccc1
quantityKind: viability at 10 µM
recordedValue: 23%
--
structureString: Cc1ccccc1CNC(=O)/C=C/c1ccc(O)c(O)c1
quantityKind: viability at 10 µM
recordedValue: 25%

---

- assayExplanation: Cytotoxicity in mouse B16 cells assessed as cell viability at 2.5 uM by MTT assay
- Assay type: cell-based
- reportedConditions: read-out: Activity
Listed next: entries and their corresponding viability at 2.5 µM.

structureString: CC(=O)Oc1ccc(/C=C/C(=O)OC2CCCCC2)cc1OC(C)=O
viability at 2.5 µM: 24%

structureString: Cc1n[nH]c(NC(=O)/C=C/c2ccc(O)c(O)c2)c1-c1ccc(Br)cc1
viability at 2.5 µM: 29 to 56%

structureString: O=C(/C=C/c1ccc(O)c(O)c1)Nc1cccc(C(F)(F)F)c1
viability at 2.5 µM: 22 to 36%

structureString: CCCCc1ccc(NC(=O)/C=C/c2ccc(O)c(O)c2)cc1
viability at 2.5 µM: 33 to 49%
